target: alkaline phosphatase from bovine intestine (Bos taurus, UniProt P19111); test: AP fluorometric assay; type: biochemical; details: 0.025 μM DiFMUP, pH 6.5, 37 °C, 60 min; ± 95% confidence interval
Sequence (P19111 20-506 limits assumed): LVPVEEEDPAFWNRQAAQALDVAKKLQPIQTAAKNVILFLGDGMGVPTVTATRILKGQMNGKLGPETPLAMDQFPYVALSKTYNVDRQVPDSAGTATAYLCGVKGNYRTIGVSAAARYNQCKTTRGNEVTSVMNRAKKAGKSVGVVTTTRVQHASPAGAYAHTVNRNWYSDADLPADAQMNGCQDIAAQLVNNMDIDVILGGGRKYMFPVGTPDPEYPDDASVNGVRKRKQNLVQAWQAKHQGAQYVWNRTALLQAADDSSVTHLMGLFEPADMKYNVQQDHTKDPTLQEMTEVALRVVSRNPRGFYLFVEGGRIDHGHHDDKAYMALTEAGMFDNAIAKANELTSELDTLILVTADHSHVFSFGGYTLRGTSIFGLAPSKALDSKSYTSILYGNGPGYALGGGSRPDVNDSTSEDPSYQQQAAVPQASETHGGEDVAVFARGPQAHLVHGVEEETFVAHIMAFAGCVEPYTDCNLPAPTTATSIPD
reported property: pIC50
// returns pIC50 (minus log10 of molar concentration), number only

Consider the molecule [Na+].[Na+].[Na+].[O]=[V]([O-])([O-])[O-] [Na3VO4, sodium orthovanadate] and give its measured pIC50.
6.00

----------
target: alkaline phosphatase from bovine intestine (Bos taurus, UniProt P19111); assay: AP fluorometric assay; format: biochemical; conditions: 0.100 μM DiFMUP, pH 6.5, 37 °C, 60 min; ± 95% confidence interval
reported property: IC50 (µM)
Your answer should be a plain number; it is taken to be in µM.

Consider the molecule [Na+].[Na+].[Na+].[O]=[V]([O-])([O-])[O-] [Na3VO4, sodium orthovanadate] and give its measured IC50.
1.6

----------
target: alkaline phosphatase from bovine intestine (Bos taurus, UniProt P19111); experiment: AP fluorometric assay; type: biochemical; conditions: 0.400 μM DiFMUP, pH 6.5, 37 °C, 60 min; ± 95% confidence interval
reported property: IC50 (µM)
Your answer should be a plain number; it is taken to be in µM.

Consider the compound [Na+].[Na+].[Na+].[O]=[V]([O-])([O-])[O-] [Na3VO4, sodium orthovanadate] and give its measured IC50.
4

----------
biological target: alkaline phosphatase from bovine intestine (Bos taurus); experiment: AP fluorometric assay; format: biochemical; details: 0.050 μM DiFMUP, pH 6.5, 37 °C, 60 min; ± 95% confidence interval
reported property: IC50 (nM)
Your answer should be a plain number; it is taken to be in nM.

Consider the compound [Na+].[Na+].[Na+].[O]=[V]([O-])([O-])[O-] [Na3VO4, sodium orthovanadate] and give its measured IC50.
1500

----------
molecular target: alkaline phosphatase from bovine intestine (Bos taurus); assay: AP fluorometric assay; type: biochemical; conditions: 1.600 μM DiFMUP, pH 6.5, 37 °C, 60 min; ± 95% confidence interval
reported property: pIC50
// returns pIC50 (minus log10 of molar concentration), number only

Consider the compound [Na+].[Na+].[Na+].[O]=[V]([O-])([O-])[O-] [Na3VO4, sodium orthovanadate] and give its measured pIC50.
4.96
